- system under test: T1, Glu-plasminogen (Homo sapiens (Human), UniProt P00747 20-810, Native glycoprotein; the glycans are not carried by the letters.)
- T1 construct: also called Glu-Plg
- T1 sequence (P00747 20-810 limits assumed): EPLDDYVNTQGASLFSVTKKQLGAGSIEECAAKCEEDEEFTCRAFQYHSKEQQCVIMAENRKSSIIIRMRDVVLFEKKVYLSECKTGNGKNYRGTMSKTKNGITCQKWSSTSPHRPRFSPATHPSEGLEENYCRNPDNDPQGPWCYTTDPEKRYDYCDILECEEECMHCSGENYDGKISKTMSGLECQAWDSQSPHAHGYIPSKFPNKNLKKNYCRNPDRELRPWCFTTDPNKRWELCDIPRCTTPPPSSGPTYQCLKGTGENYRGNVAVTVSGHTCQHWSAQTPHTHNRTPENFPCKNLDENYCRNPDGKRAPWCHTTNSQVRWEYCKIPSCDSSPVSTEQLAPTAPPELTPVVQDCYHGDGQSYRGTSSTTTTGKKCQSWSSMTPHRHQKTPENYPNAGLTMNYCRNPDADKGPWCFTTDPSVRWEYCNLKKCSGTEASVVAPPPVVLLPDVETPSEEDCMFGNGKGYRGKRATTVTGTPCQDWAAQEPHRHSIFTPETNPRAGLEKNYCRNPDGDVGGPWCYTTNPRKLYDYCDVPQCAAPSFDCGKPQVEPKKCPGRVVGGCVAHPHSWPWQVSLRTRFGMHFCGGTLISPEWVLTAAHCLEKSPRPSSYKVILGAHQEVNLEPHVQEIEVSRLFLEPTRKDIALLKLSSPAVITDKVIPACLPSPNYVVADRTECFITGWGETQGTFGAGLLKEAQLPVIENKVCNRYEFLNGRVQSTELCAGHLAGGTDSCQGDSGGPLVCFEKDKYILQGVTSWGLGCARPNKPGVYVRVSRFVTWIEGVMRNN
- assay explanation: SPR (Biacore T100, 25 °C), Glu-Plg on CM5 chip, 1:1 binding model
parameter measured: pKd
Keep it numeric: pKd is minus log10 of the concentration in mol/L.

The reported pKd of the binder KD1L17R-KT (designed binder, Both have C-terminal lysine; also called IIa cleaved KD1L17R-VT) GNNAEICLLPLDYGPCRARLLRYYYDRYTQSCRQFLYGGCEGNANNFYTWEACDDACWRIEKVPK was 6.55

Hey, just so you know, these numbers are from patent EP2970434B1.
